Data provenance: patent US20250236608A1

Known pIC50 of a selection of molecules
Target: EGFR (d746-750) (Homo sapiens (Human), UniProt P00533, DEL746-750)
Sequence (P00533 other isoform, or with tags, fused parts or gaps del 1-694/del 746-750 limits assumed): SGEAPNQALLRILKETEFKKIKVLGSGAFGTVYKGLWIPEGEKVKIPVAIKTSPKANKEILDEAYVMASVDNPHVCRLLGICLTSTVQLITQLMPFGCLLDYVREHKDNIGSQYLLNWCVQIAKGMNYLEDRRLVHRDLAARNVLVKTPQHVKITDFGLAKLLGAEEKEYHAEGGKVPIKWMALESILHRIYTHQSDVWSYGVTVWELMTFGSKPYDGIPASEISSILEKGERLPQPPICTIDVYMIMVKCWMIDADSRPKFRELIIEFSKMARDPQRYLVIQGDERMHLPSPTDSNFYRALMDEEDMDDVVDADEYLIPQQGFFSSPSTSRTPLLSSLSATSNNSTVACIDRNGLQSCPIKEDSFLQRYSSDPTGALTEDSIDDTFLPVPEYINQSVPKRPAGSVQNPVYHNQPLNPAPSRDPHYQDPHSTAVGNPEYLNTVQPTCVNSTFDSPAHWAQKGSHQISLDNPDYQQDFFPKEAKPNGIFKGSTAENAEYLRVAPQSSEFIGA
Assay: Biochemical EGFR inhibition assay, EGFR (d746-750)
Details: Caliper mobility shift; 1.0 mM ATP or ATP Km; read-out: Enz EGFR_Exon19-del746-750 IC50
Note on units: pIC50 is unitless, being -log10 of a concentration expressed in mol/L.

The following molecules have reported results that may help.
Ask: Read the entry CCn1cc(-c2ncnc3cc(OC)c(NC(=O)[C@]45COC[C@H]4C5)cc23)c(-c2ccccc2)n1 and write its reported pIC50.
Result: 9.10

Ask: Give me measured pIC50, please, for this molecule: COc1cc2ncnc(-c3cn(C)nc3-c3ccccc3)c2cc1O[C@H]1CN(C)C[C@@H]1F
Result: 8.77

Ask: Output pIC50 of CCn1cc(-c2ncnc3cc(OC)c(NC(=O)[C@]45COC[C@H]4C5)nc23)c(-c2ccccc2)n1 (single isomer, unassigned)
Result: 9.30

Continuing:
Ask: Fill in pIC50 for record COc1cc2ncnc(-c3cn(C)nc3-c3ccccc3)c2cc1OC(=O)N1CCO[C@@H](C)[C@@H]1C
Result: 8.77

Ask: Note pIC50 for the molecule shown: COc1cc2ncnc(-c3cn(C)nc3-c3ccccc3)c2nc1O[C@H](C)c1cscn1 (single isomer, unassigned)
Result: 9.22

Ask: Read the entry COc1cc2ncnc(-c3cn(C)nc3-c3ccccc3)c2nc1O[C@@H](C)c1csc(C)n1 and write its reported pIC50.
Result: 9.15

Ask: State, in one line, measured pIC50 of COc1cc2ncnc(-c3cn(C)nc3-c3ccccc3)c2nc1NC(=O)c1cnc(C2CC2)s1
Result: 9.40

###

Target: EGFR (d746-750) (Homo sapiens (Human), UniProt P00533, DEL746-750)
Assay: Biochemical EGFR inhibition assay, EGFR (d746-750)
Details: Caliper mobility shift; 1.0 mM ATP or ATP Km; read-out: Enz EGFR_Exon19-del746-750 IC50
Listing: pIC50 of selected compounds
The value called pIC50 is obtained by taking minus log10 of the concentration in mol/L.

Previously resolved entries follow.
Ask: For the compound COc1cc2ncnc(-c3cn(C)nc3-c3ccccc3)c2cc1NC(=O)[C@H](C)F (single isomer, unassigned) , give its measured pIC50 value.
Result: 8.89

Ask: Annotate the compound COc1cc2ncnc(-c3cn(CC(F)F)nc3-c3ccc(F)cc3)c2cc1C1(O)CC1 with its measured pIC50.
Result: 8.41

Further cases:
Ask: Specify pIC50 for COc1cc2ncnc(-c3cn(C)nc3-c3ccccc3)c2cc1NC(=O)[C@H](C)N(C)C (single isomer, unassigned) [Example 237] and stop.
Result: 8.70

Ask: Answer with the recorded pIC50 of COc1cc2ncnc(-c3cn(C)nc3-c3ccccc3)c2cc1NC(=O)c1ccnn1C(C)C only.
Result: 9.00

###

Target: EGFR (d746-750) (Homo sapiens (Human), UniProt P00533, DEL746-750)
Assay: Biochemical EGFR inhibition assay, EGFR (d746-750)
Details: Caliper mobility shift; 1.0 mM ATP or ATP Km; read-out: Enz EGFR_Exon19-del746-750 IC50
property label: pIC50
The value called pIC50 is obtained by taking minus log10 of the concentration in mol/L.

Ask: Look up and report pIC50, with EGFR (d746-750) (Homo sapiens (Human), UniProt P00533, DEL746-750) as system, for CCN1CCN(C(=O)Oc2cc3c(-c4cn(C)nc4-c4ccccc4)ncnc3cc2OC)[C@@H](C)C1 [Example 75]
Result: 8.66

Ask: Find pIC50 for COc1cc2ncnc(-c3cn(C)nc3-c3ccccc3F)c2nc1NC(=O)[C@]12COC[C@H]1C2 (single isomer, unassigned) [Example 386] on EGFR (d746-750) (Homo sapiens (Human), UniProt P00533, DEL746-750) and write it down.
Result: 8.96

Ask: # return pIC50 of CCOc1cc2ncnc(-c3cn(C)nc3-c3ccccc3)c2cc1Cn1ncnc1C [Example 134] (system: EGFR (d746-750) (Homo sapiens (Human), UniProt P00533, DEL746-750))
Result: 8.68

Ask: Quote EGFR (d746-750) (Homo sapiens (Human), UniProt P00533, DEL746-750) pIC50 for entry CCC(=O)Nc1cc2c(-c3cn(C)nc3-c3c(F)cccc3F)ncnc2cc1-c1ccn(C)n1 [Example 453] .
Result: 9.15

Then this molecule:
Ask: Please report pIC50 with EGFR (d746-750) (Homo sapiens (Human), UniProt P00533, DEL746-750) for item COc1cc2ncnc(-c3cn(C)nc3-c3ccccc3)c2nc1NC(=O)c1ccc(F)cc1 [Example 312] .
Result: 8.49
